Biological target: Hsp82 (Saccharomyces cerevisiae, UniProt P02829)
Sequence (P02829 whole entry): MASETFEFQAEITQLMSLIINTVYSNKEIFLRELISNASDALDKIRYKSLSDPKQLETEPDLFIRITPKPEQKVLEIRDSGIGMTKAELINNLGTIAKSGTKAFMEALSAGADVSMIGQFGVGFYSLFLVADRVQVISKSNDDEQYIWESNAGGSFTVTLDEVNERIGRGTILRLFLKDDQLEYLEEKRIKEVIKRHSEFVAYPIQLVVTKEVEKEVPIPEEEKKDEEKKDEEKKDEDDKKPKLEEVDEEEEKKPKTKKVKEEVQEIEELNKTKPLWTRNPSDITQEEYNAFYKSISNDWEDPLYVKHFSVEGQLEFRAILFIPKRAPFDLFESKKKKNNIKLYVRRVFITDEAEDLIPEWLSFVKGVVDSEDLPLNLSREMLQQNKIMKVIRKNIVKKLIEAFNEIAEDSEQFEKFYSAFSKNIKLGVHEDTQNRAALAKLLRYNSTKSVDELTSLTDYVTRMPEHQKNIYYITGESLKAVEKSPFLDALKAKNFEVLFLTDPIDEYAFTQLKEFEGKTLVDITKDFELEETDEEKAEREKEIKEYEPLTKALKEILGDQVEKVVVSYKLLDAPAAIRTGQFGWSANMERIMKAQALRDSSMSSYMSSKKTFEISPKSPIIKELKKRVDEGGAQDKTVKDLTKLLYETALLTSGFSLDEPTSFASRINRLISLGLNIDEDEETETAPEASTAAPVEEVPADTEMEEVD
Experiment: PK/LDH enzyme coupling test of the ATPase activity of Hsp82 (NADH decrease at 340 nm)
Assay type: biochemical
Details: 1 μM Hsp82, 250 μM ATP, 37° C., pyruvate kinase/lactate dehydrogenase coupling, read-out: Hsp82 ATPase IC50
pIC50: −log10 of the molar value.
readout name: pIC50

# input Requested read-out pIC50, target or system Hsp82 (Saccharomyces cerevisiae, UniProt P02829), entry c1cncc(CON=C2c3ccccc3-c3c2cccc3-c2nc3cnccc3[nH]2)c1 (mixture of isomers)
# output 5.00 to 6.00

# input Do the same for NC(=O)C[C@@H](N)C(=O)NC1c2ccccc2-c2c(-c3nc4cnccc4[nH]3)cccc21 (stereo partly shown) please
# output 5.00 to 6.00

# input Do the same for O=C(NC1c2ccccc2-c2c(-c3nc4cnccc4[nH]3)cccc21)c1nccc2ccccc12 (racemic) please
# output 4.00 to 5.00

# input Do the same for O=C(NC1c2ccccc2-c2c(-c3nc4cnccc4[nH]3)cccc21)c1ccnc2ccccc12 (racemic) please
# output > 6.00

# input Do the same for O=CNC1c2ccccc2-c2c(-c3nc4cnccc4[nH]3)cccc21 (racemic) please
# output 4.00 to 5.00

# input Do the same for O=C(NC1c2ccccc2-c2c(-c3nc4ccncc4[nH]3)cccc21)c1c(Br)cnc2[nH]cnc12 (racemic) please
# output > 6.00

# input Do the same for O=C(NCc1ccc(Cl)nc1)C1c2ccccc2-c2c(-c3nc4cnccc4[nH]3)cccc21 (racemic) please
# output 4.00 to 5.00
